// reported Relative abundance of MS peak areas, Dog Plasma 0-48 h per item
# ASSAY_DETAILS: Metabolite identification in dog plasma
# Type: in vivo, beagle dogs
# PROTOCOL_CONDITIONS: oral 8 mg/kg BPI-460372, average of male and female pooled samples
Write it as a number; the unit % goes unstated.

COMPOUND	VALUE
NCC(C(=O)O)n1c(=O)n(-c2ccc(C(F)(F)F)cc2)c2nccnc21 (stereo not shown)	0.83
C=C(F)C(=O)N1CC(n2c(=O)n(-c3ccc(C(F)(F)F)cc3)c3nccnc32)C1	30.93
C=CC(=O)N1CC(n2c(=O)n(-c3ccc(C(F)(F)F)cc3)c3nccnc32)C1	0.15
CC(O)C(=O)N1CC(n2c(=O)n(-c3ccc(C(F)(F)F)cc3)c3nccnc32)C1 (stereo not shown)	6.23

Dear colleague, I am looking for the recorded Relative abundance of MS peak areas, Dog Plasma 0-48 h of the following compound: `O=c1n(-c2ccc(C(F)(F)F)cc2)c2nccnc2n1C1CNC1`
8.45

Dear colleague, I am looking for the recorded Relative abundance of MS peak areas, Dog Plasma 0-48 h of the following compound: O=c1n(-c2ccc(C(F)(F)F)cc2)c2nccnc2n1C1CN(C(O)C(O)CO)C1 (stereo not shown)
0.98

Dear colleague, I am looking for the recorded Relative abundance of MS peak areas, Dog Plasma 0-48 h of the following compound: CSCC(O)C(=O)N1CC(n2c(=O)n(-c3ccc(C(F)(F)F)cc3)c3nccnc32)C1 (stereo not shown)
3.58

Dear colleague, I am looking for the recorded Relative abundance of MS peak areas, Dog Plasma 0-48 h of the following compound: NC(CSCC(F)C(=O)N1CC(n2c(=O)n(-c3ccc(C(F)(F)F)cc3)c3nccnc32)C1)C(=O)O (stereo not shown)
7.65

Dear colleague, I am looking for the recorded Relative abundance of MS peak areas, Dog Plasma 0-48 h of the following compound: O=C(C(O)CO)N1CC(n2c(=O)n(-c3ccc(C(F)(F)F)cc3)c3nccnc32)C1 (stereo not shown)
40.81

Dear colleague, I am looking for the recorded Relative abundance of MS peak areas, Dog Plasma 0-48 h of the following compound: `CCC(=O)N1CC(n2c(=O)n(-c3ccc(C(F)(F)F)cc3)c3nccnc32)C1`
0.36

###

# ASSAY_DETAILS: Metabolite identification in rat plasma, urine, feces and bile
# Format: in vivo, SD rats
# PROTOCOL_CONDITIONS: oral 6 mg/kg BPI-460372, average of male and female pooled samples
Please use y whenever Relative abundance of MS peak areas, Rat Bile 0-48 h is not below 0.6%, and n whenever it is.

COMPOUND	CLASS_NAME
CC(=O)NC(CSCC(F)C(=O)N1CC(n2c(=O)n(-c3ccc(C(F)(F)F)cc3)c3nccnc32)C1)C(=O)O (stereo not drawn)	y

Could you please find out whether NC(CCC(=O)NC(CSCC(O)C(=O)N1CC(n2c(=O)n(-c3ccc(C(F)(F)F)cc3)c3nccnc32)C1)C(=O)NCC(=O)O)C(=O)O (stereo not drawn) has Relative abundance of MS peak areas, Rat Bile 0-48 h that meets 0.6% or exceeds it?
n

Could you please find out whether `C=CC(=O)N1CC(n2c(=O)n(-c3ccc(C(F)(F)F)cc3)c3nccnc32)C1` has Relative abundance of MS peak areas, Rat Bile 0-48 h that meets 0.6% or exceeds it?
n

Could you please find out whether CC(O)C(=O)N1CC(n2c(=O)n(-c3ccc(C(F)(F)F)cc3)c3nccnc32)C1 (stereo not drawn) has Relative abundance of MS peak areas, Rat Bile 0-48 h that meets 0.6% or exceeds it?
y

Could you please find out whether CC(=O)NC(CSCC(O)C(=O)N1CC(n2c(=O)n(-c3ccc(C(F)(F)F)cc3)c3cncnc32)C1)C(=O)O (stereo not drawn) has Relative abundance of MS peak areas, Rat Bile 0-48 h that meets 0.6% or exceeds it?
y

Could you please find out whether CC(=O)NC(CSCCC(=O)N1CC(n2c(=O)n(-c3ccc(C(F)(F)F)cc3)c3cncnc32)C1)C(=O)O (stereo not drawn) has Relative abundance of MS peak areas, Rat Bile 0-48 h that meets 0.6% or exceeds it?
n

Could you please find out whether NC(CSCC(O)C(=O)N1CC(n2c(=O)n(-c3ccc(C(F)(F)F)cc3)c3cncnc32)C1)C(=O)O (stereo not drawn) has Relative abundance of MS peak areas, Rat Bile 0-48 h that meets 0.6% or exceeds it?
y

Could you please find out whether NC(CSCC(F)C(=O)N1CC(n2c(=O)n(-c3ccc(C(F)(F)F)cc3)c3nccnc32)C1)C(=O)O (stereo not drawn) has Relative abundance of MS peak areas, Rat Bile 0-48 h that meets 0.6% or exceeds it?
y

###

# Tested on: mouse hepatocytes
# ASSAY_DETAILS: Metabolism and metabolite formation in hepatocytes
# Assay type: in vitro ADME, ICR mouse
# PROTOCOL_CONDITIONS: ICR mouse hepatocytes, 10 µM BPI-460372, 4 h incubation
// reported UV (314 nm) Peak Areas Relative Abundance per item
Write it as a number; the unit % goes unstated.

COMPOUND	UNIT_SPEC	VALUE
NC(CSCC(F)C(=O)N1CC(n2c(=O)n(-c3ccc(C(F)(F)F)cc3)c3nccnc32)C1)C(=O)O (stereo not drawn)	%	24.76
CC(=O)N1CC(n2c(=O)n(-c3ccc(C(F)(F)F)cc3)c3nccnc32)C1	%	3.57
C=C(F)C(=O)N1CC(n2c(=O)n(-c3ccc(C(F)(F)F)cc3)c3nccnc32)C1	%	32.74

For the next question, use this compound.
Dear colleague, I am looking for the recorded UV (314 nm) Peak Areas Relative Abundance of the following compound: `O=c1n(-c2ccc(C(F)(F)F)cc2)c2nccnc2n1C1CNC1`
26.4

###

# ASSAY_DETAILS: Metabolite identification in rat plasma, urine, feces and bile
# Assay type: in vivo, SD rats
# PROTOCOL_CONDITIONS: oral 6 mg/kg BPI-460372, average of male and female pooled samples
REPORTED_PROPERTY: Relative abundance of MS peak areas, Rat Feces 0-48 h (%)
Write it as a number; the unit % goes unstated.

COMPOUND	VALUE
C=CC(=O)N1CC(n2c(=O)n(-c3ccc(C(F)(F)F)cc3)c3nccnc32)C1	16.59
CC(=O)NC(CSCC(O)C(=O)N1CC(n2c(=O)n(-c3ccc(C(F)(F)F)cc3)c3cncnc32)C1)C(=O)O (stereo not shown)	0.45
CC(=O)NC(CSCCC(=O)N1CC(n2c(=O)n(-c3ccc(C(F)(F)F)cc3)c3cncnc32)C1)C(=O)O (stereo not shown)	1.65

Dear colleague, I am looking for the recorded Relative abundance of MS peak areas, Rat Feces 0-48 h of the following compound: NC(CSCC(F)C(=O)N1CC(n2c(=O)n(-c3ccc(C(F)(F)F)cc3)c3nccnc32)C1)C(=O)O (stereo not shown)
1.61

###

# Tested on: rat hepatocytes
# ASSAY_DETAILS: Metabolism and metabolite formation in hepatocytes
# Type: in vitro ADME, SD rat
# PROTOCOL_CONDITIONS: SD rat hepatocytes, 10 µM BPI-460372, 4 h incubation
Please use MET whenever UV (314 nm) Peak Areas Relative Abundance is not below 3%, and NOT MET whenever it is.

Field: example entries. Status: answers known.
COMPOUND	CLASS_NAME
NC(CCC(=O)NC(CSCC(F)C(=O)N1CC(n2c(=O)n(-c3ccc(C(F)(F)F)cc3)c3nccnc32)C1)C(=O)NCC(=O)O)C(=O)O (stereo not drawn) [M714]	MET
C=C(F)C(=O)N1CC(n2c(=O)n(-c3ccc(C(F)(F)F)cc3)c3nccnc32)C1 [BPI-460372]	MET
CC(=O)NC(CSCC(F)C(=O)N1CC(n2c(=O)n(-c3ccc(C(F)(F)F)cc3)c3nccnc32)C1)C(=O)O (stereo not drawn) [M570]	NOT MET
CC(=O)N1CC(n2c(=O)n(-c3ccc(C(F)(F)F)cc3)c3nccnc32)C1 [M377]	NOT MET

Could you please find out whether O=c1n(-c2ccc(C(F)(F)F)cc2)c2nccnc2n1C1CNC1 [M335 (BPI-460608)] has UV (314 nm) Peak Areas Relative Abundance that meets 3% or exceeds it?
MET

Could you please find out whether CC(O)C(=O)N1CC(n2c(=O)n(-c3ccc(C(F)(F)F)cc3)c3nccnc32)C1 (stereo not drawn) [M407 (BPI-460430)] has UV (314 nm) Peak Areas Relative Abundance that meets 3% or exceeds it?
NOT MET

Could you please find out whether NC(CSCC(F)C(=O)N1CC(n2c(=O)n(-c3ccc(C(F)(F)F)cc3)c3nccnc32)C1)C(=O)O (stereo not drawn) [M528] has UV (314 nm) Peak Areas Relative Abundance that meets 3% or exceeds it?
MET

###

// reported half-life at 1 µM per item
# ASSAY_DETAILS: in vitro
# PROTOCOL_CONDITIONS: SD, rat, hepatocytes
Write it as a number; the unit min goes unstated.

COMPOUND	UNIT_SPEC	half-life at 1 µM
C=C(F)C(=O)N1CC(n2c(=O)n(-c3ccc(C(F)(F)F)cc3)c3nccnc32)C1	min	236
O=c1ccc2ccc(O)cc2o1 [7-hydroxycoumarin]	min	22.5

For the next question, use this compound.
Dear colleague, I am looking for the recorded half-life at 1 µM of the following compound: `C[C@]12CC[C@H]3[C@@H](CCC4=CC(=O)CC[C@@]43C)[C@@H]1CC[C@@H]2O`
13.9
